Examples of binders with documented Internalization (%), FACS, 2 µg/ml, 4 h follow.
biological target: human PD-L1 expressed on cell surface (human, UniProt Q9NZQ7 19-290); experiment: cell-based or functional assay
Sequence (Q9NZQ7 19-290 limits assumed): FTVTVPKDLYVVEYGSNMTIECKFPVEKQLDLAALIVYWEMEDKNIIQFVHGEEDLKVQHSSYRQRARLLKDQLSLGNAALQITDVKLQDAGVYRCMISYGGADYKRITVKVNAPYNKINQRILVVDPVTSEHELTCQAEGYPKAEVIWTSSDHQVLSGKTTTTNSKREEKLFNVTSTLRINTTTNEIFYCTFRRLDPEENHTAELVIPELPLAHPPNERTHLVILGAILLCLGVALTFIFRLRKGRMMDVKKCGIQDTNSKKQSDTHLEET
Form entry: value (%) — number only.

In the examples that follow, each entry is paired with its recorded Internalization (%), FACS, 2 µg/ml, 4 h.
33H7 (antibody, human IgG1, V domains shown) VH: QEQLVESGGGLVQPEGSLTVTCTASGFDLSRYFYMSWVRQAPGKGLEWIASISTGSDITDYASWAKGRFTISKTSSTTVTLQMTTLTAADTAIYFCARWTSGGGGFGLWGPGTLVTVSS VL: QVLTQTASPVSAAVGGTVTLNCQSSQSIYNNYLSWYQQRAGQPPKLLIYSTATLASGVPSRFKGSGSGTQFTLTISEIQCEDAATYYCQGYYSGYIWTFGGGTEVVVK :: 12.6
33E8 (antibody, human IgG1, V domains shown) VH: QSLEESGGDLVKPGASLTLTCTASGFYFSSGYDMSWVRQAPGKGLEWIASIFTTSGSTWYANWAKGRFTISKTSSTTVTLQMTSLTDADTATYFCTKDGVGSFYMNLWGPGTLVTVSS VL: LVMTQTPASVEVAVGGTVTIKCQASQTIGSNLAWYQQRPGQPPKLLIYKAFTLASGVSSRFKGSGSGTQFTLTISGVECADAATYYCQQGATRINIDNAFGGGTEVVVK :: 30.2

Now examine the next entry.
For the binder 56H3 (antibody, human IgG1, V domains shown) VH: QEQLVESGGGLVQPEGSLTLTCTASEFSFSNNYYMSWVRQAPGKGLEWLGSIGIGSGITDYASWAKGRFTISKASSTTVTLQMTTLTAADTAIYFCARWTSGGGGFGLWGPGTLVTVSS VL: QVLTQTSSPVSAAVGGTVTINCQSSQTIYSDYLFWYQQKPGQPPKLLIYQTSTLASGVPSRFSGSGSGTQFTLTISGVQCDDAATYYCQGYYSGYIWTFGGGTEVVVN , what Internalization (%), FACS, 2 µg/ml, 4 h is on record?
4.8
